The reported numbers originate from paper PMC9911399.

- Target desc: T1, RBFOX1 RRM RbFoxmut (Fox-RRM*) (Homo sapiens, UniProt Q9NWB1 109-208, R118D;E147R;N151S;E152T)
- T1 sequence: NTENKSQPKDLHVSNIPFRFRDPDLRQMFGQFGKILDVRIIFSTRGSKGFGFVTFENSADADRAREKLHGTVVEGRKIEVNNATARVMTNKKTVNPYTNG
- Protocol: EMSA; HiTS-Eq, 1 nM pool, 10 min; buffer printed only for the single-RNA assays: 10 mM Tris pH 7.5, 150 mM NaCl, 3.4 mM EDTA, 0.001% NP-40, 30 C
- Test parameters: tags: His6 N-terminal (pET28a); label: 5' 32P
In all, about 16,000 sequences were measured (“ka relative to ugcaugu”: median about 0.096, highest 2% from about 0.35 on). The entries come from a sample that favours the highest values as a whole.
Assignment: determine reported binding signal for the given binders.

Look over these answered cases.
UGGUACC (DNA:RNA) RNA: GGGAGACCGGAAUUCAGAUUGUCCUGGUACCUUAAAUCCCGUCGUAGCCACCA DNA 1: CAATCTGAATTCCGGTCTCCC DNA 2: TGGTGGCTACGACGGGATT : 0.133 KA relative to UGCAUGU
UGGUACG (DNA:RNA) RNA: GGGAGACCGGAAUUCAGAUUGUCCUGGUACGUUAAAUCCCGUCGUAGCCACCA DNA 1: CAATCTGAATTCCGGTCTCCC DNA 2: TGGTGGCTACGACGGGATT : 0.367 KA relative to UGCAUGU
GUCCUUG (DNA:RNA) RNA: GGGAGACCGGAAUUCAGAUUGUCCGUCCUUGUUAAAUCCCGUCGUAGCCACCA DNA 1: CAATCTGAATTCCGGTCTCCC DNA 2: TGGTGGCTACGACGGGATT : 0.116 KA relative to UGCAUGU

Attention now shifts to the item below.
**Query** Would you kindly share the measured binding signal for AGCACCG (DNA:RNA) RNA: GGGAGACCGGAAUUCAGAUUGUCCAGCACCGUUAAAUCCCGUCGUAGCCACCA DNA 1: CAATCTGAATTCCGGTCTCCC DNA 2: TGGTGGCTACGACGGGATT ?
**Result** 0.104 KA relative to UGCAUGU
